molecular target: C18ORF32 (Homo sapiens)
Sequence (Q8TCD1 whole entry): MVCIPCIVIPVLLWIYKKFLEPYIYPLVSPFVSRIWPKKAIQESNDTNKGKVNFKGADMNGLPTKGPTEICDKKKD
ASSAY_ENDPOINT: pKd
Friendly reminder that pKd comes from taking -log10 of the concentration in mol/L.

GET /values?readout=pKd&system=C18ORF32 (Homo sapiens)&item= C[N+](C)(C)CCO [choline]
7.17

Origin of measurements: paper PMC12797721
